# Test system: SD rats
# experimentalDetails: Effect on an IBS model (2): wrap-restraint stress, weight of fecal pellets, oral administration
# Format: in vivo
# conditionDescription: 30 mg/kg orally 60 minutes before wrap-restraint stress; weight of fecal pellets in one hour; male SD rats
Marks after values point to notes of the source that are not given here.
measuredAttribute: Inhibition (%) vs. control

- molecule: "CCCS(=O)(=O)N(C)[C@@H]1CCN2CCc3ccccc3[C@@H]2C1.Cl (racemic) [Compound A, reference compound]"
  measuredAttribute: "Inhibition (%) vs. control"
  testValue: "1.4%"

// query Using known records, supply Inhibition (%) vs. control for COc1ccc2c(c1)CCN1CC[C@@H](N(C)S(=O)(=O)N(C)C)C[C@@H]21.Cl (racemic)
// result 91.7** %

// query Using known records, supply Inhibition (%) vs. control for COc1ccc2c(c1)CCN1CC[C@@H](N(C)S(C)(=O)=O)C[C@@H]21.Cl (racemic)
// result 96.6** %

// query Using known records, supply Inhibition (%) vs. control for CCS(=O)(=O)N(C)[C@@H]1CCN2CCc3cc(OC)ccc3[C@@H]2C1.Cl
// result 88.9** %

// query Using known records, supply Inhibition (%) vs. control for CS(=O)(=O)NCCN([C@@H]1CCN2CCc3ccccc3[C@@H]2C1)S(=O)(=O)c1ccccc1.Cl (racemic) [Compound B, reference compound]
// result -30.0%

// query Using known records, supply Inhibition (%) vs. control for CCN([C@@H]1CCN2CCc3cc(OC)ccc3[C@@H]2C1)S(C)(=O)=O.Cl
// result 92.6** %

Sourced from patent EP0897923A1
